B1: tRNA (parent)
chain: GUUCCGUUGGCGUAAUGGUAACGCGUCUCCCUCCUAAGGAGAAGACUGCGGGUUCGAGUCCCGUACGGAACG

Variants of: B1
Test: yeast fitness relative to wild type (ratio to wild type); higher = fitter; tRNA-Arg(CCU), competitive growth, 37 C, YPD
Variants at the floor of the assay were thinned out.
Let's look at some variants and their measured yeast fitness.

>  <sequence.variant>
U7G C11G C34U A37U C46A G51A

>  <yeast fitness>
≤ 0.5

$$$$
>  <sequence.variant>
A20C G44A C46U A69C

>  <yeast fitness>
0.698

$$$$
>  <sequence.variant>
C5A A15C C29A C60G

>  <yeast fitness>
≤ 0.5

$$$$
